# credit: patent US20240270821A1

- target or system: hGLP-1R (Homo sapiens, UniProt P43220)
- Sequence (P43220 24-463): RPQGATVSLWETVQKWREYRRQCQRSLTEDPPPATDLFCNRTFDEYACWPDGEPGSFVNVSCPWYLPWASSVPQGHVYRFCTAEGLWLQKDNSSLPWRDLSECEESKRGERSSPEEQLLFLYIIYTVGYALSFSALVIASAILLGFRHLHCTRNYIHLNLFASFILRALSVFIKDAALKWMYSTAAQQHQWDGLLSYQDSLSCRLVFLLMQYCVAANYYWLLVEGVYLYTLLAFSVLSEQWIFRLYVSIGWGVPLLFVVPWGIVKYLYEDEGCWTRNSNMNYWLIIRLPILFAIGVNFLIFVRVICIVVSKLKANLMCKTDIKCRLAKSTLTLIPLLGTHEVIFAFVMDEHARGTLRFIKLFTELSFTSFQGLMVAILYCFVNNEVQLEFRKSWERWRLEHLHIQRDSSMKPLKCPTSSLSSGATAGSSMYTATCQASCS
- protocol text: cell-based or functional assay
Non-standard residues stand in square brackets, D forms with d. No end group written: not given here. αMePhe(2-F) = C[C@](N)(Cc1ccccc1F)C(=O)O; Aib = CC(C)(N)C(=O)O
Overview of reported cAMP Rel EC50, nM (1% HSA) across a group of binders:
Your answer should be a plain number; it is taken to be in nM.

Some binders with recorded cAMP Rel EC50, nM (1% HSA):
YXQGTXTSDYSIXLDKKAQXAFIEYLEEGGPSSGAPPPS (synthetic construct; SITE 2: note = 2-Aminoisobutyric Acid; SITE 6: note = alpha-methyl-L-phenylalanine; SITE 13: note = alpha-methyl-leucine; SITE 17: note = Lysine is chemically modified through conjugation of the epsilon-amino group of the Lysine side chain with (2-[2-(2-Amino-ethoxy)-ethoxy]-ace)) [Example 394]; 33.2
YXQGTFTSDXSXXLDKKAQXAFIEYLIAGGPSSGEPPPSGTE (non-natural residues (Aib, 4Pal, Orn, αMeL, Me4Pal); lipidated K; amide; synthetic construct; SITE 2: note = 2-Aminoisobutyric Acid; SITE 10: note = 3-(4-Pyridyl)-L-alanine; SITE 12: note = L-ornithine; SITE 13: note = alpha-methyl-leucine; SITE 17: note = Lysine is chemically modified through conjugation of the epsilon-amino group of the Lysine side chain with (gamma-Gl)) [Example 980]; 290
YXQGTXTSDXSIXLDKKAQXAFIEYLSEGGPSSGAPPPS (synthetic construct; SITE 2: note = 2-Aminoisobutyric Acid; SITE 6: note = alpha-methyl-2-fluoro-L-phenylalanine; SITE 10: note = 3-(4-Pyridyl)-L-alanine; SITE 13: note = alpha-methyl-leucine; SITE 17: note = Lysine is chemically modified through conjugation of the epsilon-amino group of the Lysine) [Example 446]; 24.5
Y[Aib]QGT[αMePhe(2-F)]TSDYSKILDKIAQKAFIQYLIEGGPSSGEPPPSEG-NH2 (not fully specified (residue 20)) [Example 354]; 175
YXQGTFTSDXSQXLDXKAQXAFIEYLIEAGPSSGAPPPSGSE (not fully specified; Aib, 4Pal, αMeL, Orn, Me4Pal, acylated K, C-terminal amide; synthetic construct; SITE 2: note = 2-Aminoisobutyric Acid; SITE 10: note = 3-(4-Pyridyl)-L-alanine; SITE 13: note = alpha-methyl-leucine; SITE 16: note = L-ornithine; SITE 17: note = Lysine is chemically modified through conjugation of the epsilon-amino group of the Lysine side chain with (2-[2-(2-) [Example 1022]; 203
YXQGTFTSDFSQXLDXKAQXAFIEYLLEAGPSSGAPPPSGSEEE (Aib, αMeL, Orn, D-Ala; C18 diacid-(γ-Glu)2 acyl; amide; synthetic construct; SITE 2: note = 2-Aminoisobutyric Acid; SITE 13: note = alpha-methyl-leucine; SITE 16: note = L-ornithine; SITE 17: note = Lysine is chemically modified through conjugation of the epsilon-amino group of the Lysine side chain with (gamma-Glu)2-CO-(CH2)16-CO2H; SITE 20: note = 2-Am) [Example 1039]; 413
YXQGTFTSDXSXXLDXKAQXXFIEYLLAGGPSSGAPPPSGSEE (non-natural residues; C18 diacid-(γ-Glu)2 acyl on Lys; C-terminal amide; synthetic construct; SITE 2: note = 2-Aminoisobutyric Acid; SITE 10: note = 3-(4-Pyridyl)-L-alanine; SITE 12: note = L-ornithine; SITE 13: note = alpha-methyl-leucine; SITE 16: note = L-ornithine; SITE 17: note = Lysine is chemically modified through conjugation of the epsilon-amino group of the Lys) [Example 1004]; 973
YXQGTFTSDFSXXLDKKAQXAFIEWLLEGGTSSGAPPPSGS (synthetic construct; SITE 2: note = 2-Aminoisobutyric Acid; SITE 12: note = L-ornithine; SITE 13: note = alpha-methyl-leucine; SITE 17: note = Lysine is chemically modified through conjugation of the epsilon-amino group of the Lysine side chain with (2-[2-(2-Amino-ethoxy)-ethoxy]-acetyl)-(gamma-Glu)) [Example 176]; 389

Query string: Assign cAMP Rel EC50, nM (1% HSA) to the following record: Y[Aib]QGT[αMePhe(2-F)]TSDYSILLDAQAAKEFIEYLIEGGPSSGEPPPSEG-NH2 (not fully specified (residue 20)) [Example 351]
Result string: 272
